Cited source: paper PMC4260745

# experimentalTarget: A2BAR (A2B adenosine receptor) (Homo sapiens)
# Sequence (P29275 whole entry): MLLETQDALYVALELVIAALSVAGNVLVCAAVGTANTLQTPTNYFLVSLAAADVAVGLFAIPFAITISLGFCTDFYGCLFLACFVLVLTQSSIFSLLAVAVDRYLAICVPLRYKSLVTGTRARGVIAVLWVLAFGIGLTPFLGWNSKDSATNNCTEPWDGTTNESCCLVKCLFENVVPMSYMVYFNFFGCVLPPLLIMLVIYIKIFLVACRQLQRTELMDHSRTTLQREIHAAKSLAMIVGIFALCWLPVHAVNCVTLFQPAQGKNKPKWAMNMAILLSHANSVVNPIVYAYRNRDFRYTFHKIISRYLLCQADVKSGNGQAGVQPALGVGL
# protocolSummary: […]GTPγS binding, membranes of U343MG-derived CSCs (endogenous receptor)
measuredEndpoint: EC50 (nM)
Give bare numbers, in nM.

Please supply the value of reported EC50 for the item `N#Cc1c(N)nc(SCC(N)=O)c(C#N)c1-c1ccc(OCC2CC2)cc1`
1.9
